Quick reference: pIC50 of the listed items.
Biological target: Human indoleamine 2,3-dioxygenase1 (hIDO1) (Homo sapiens (Human))
Sequence (P14902 whole entry): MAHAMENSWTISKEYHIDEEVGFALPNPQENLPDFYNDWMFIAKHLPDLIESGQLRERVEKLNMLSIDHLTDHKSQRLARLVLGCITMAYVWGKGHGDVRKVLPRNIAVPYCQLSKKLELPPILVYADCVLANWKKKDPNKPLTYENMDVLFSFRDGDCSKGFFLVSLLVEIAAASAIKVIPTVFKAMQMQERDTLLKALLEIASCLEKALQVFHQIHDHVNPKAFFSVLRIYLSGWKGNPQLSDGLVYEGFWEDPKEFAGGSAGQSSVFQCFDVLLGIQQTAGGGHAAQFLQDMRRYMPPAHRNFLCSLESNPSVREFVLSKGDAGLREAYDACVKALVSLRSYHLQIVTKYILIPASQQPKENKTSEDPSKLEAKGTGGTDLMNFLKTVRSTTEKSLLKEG
pIC50: −log10 of the molar value.

{"columns": ["COMPOUND", "pIC50"],
 "data": [
  ["CCOC(=O)Nc1sc2ccccc2c1Nc1ccc(F)c(Cl)c1", "< 6.00"],
  ["Nc1oc2cnccc2c1Nc1cc(Cl)ccc1Cl", "< 6.00"]
]}

Query string: Jot down pIC50 (Human indoleamine 2,3-dioxygenase1 (hIDO1) (Homo sapiens (Human))) of `Nc1sc2ccccc2c1Nc1ccc(F)c(F)c1` .
Result string: > 6.70

Query string: Jot down pIC50 (Human indoleamine 2,3-dioxygenase1 (hIDO1) (Homo sapiens (Human))) of `Nc1oc2c(Cc3ccccc3)nccc2c1Nc1ccc(F)c(Cl)c1` .
Result string: > 6.70

Query string: Jot down pIC50 (Human indoleamine 2,3-dioxygenase1 (hIDO1) (Homo sapiens (Human))) of `Cc1cc(-c2nccc3c(Nc4cccc(Cl)c4)c(N)oc23)ccn1` .
Result string: > 6.70

Query string: Jot down pIC50 (Human indoleamine 2,3-dioxygenase1 (hIDO1) (Homo sapiens (Human))) of `CCc1cc2c(Nc3ccc(F)c(Cl)c3)c(N)oc2c(-c2ccccc2)n1` .
Result string: 6.00 to 6.70

Query string: Jot down pIC50 (Human indoleamine 2,3-dioxygenase1 (hIDO1) (Homo sapiens (Human))) of `C#Cc1cc(Nc2c(N)oc3c(-c4ccncc4)nccc23)ccc1F` .
Result string: > 6.70

Query string: Jot down pIC50 (Human indoleamine 2,3-dioxygenase1 (hIDO1) (Homo sapiens (Human))) of `Cc1ccc2sc(N)c(Nc3ccc(F)c(Cl)c3)c2c1` .
Result string: 6.00 to 6.70

Query string: Jot down pIC50 (Human indoleamine 2,3-dioxygenase1 (hIDO1) (Homo sapiens (Human))) of `Nc1oc2cnc(F)cc2c1Nc1ccc(F)cc1` .
Result string: > 6.70

Query string: Jot down pIC50 (Human indoleamine 2,3-dioxygenase1 (hIDO1) (Homo sapiens (Human))) of `CNC(=O)c1cc(-c2nccc3c(Nc4cccc(Cl)c4)c(N)oc23)ccn1` .
Result string: > 6.70

Query string: Jot down pIC50 (Human indoleamine 2,3-dioxygenase1 (hIDO1) (Homo sapiens (Human))) of `N#Cc1ccc2c(Nc3cccc(C(F)(F)F)c3)c(N)oc2c1` .
Result string: > 6.70

Query string: Jot down pIC50 (Human indoleamine 2,3-dioxygenase1 (hIDO1) (Homo sapiens (Human))) of `CCOC(=O)Nc1oc2c(C#N)nccc2c1N(C(=O)OCC)c1ccc(F)c(C(F)(F)F)c1` .
Result string: < 6.00

Query string: Jot down pIC50 (Human indoleamine 2,3-dioxygenase1 (hIDO1) (Homo sapiens (Human))) of `Nc1oc2cnc(F)cc2c1Nc1cccc(Cl)c1` .
Result string: > 6.70
